pKi: −log10 of the molar value.
Please find below pKi data on Adenosine receptor A1 (Bos taurus, UniProt P28190) compiled from the literature.
Sequence (P28190 whole entry): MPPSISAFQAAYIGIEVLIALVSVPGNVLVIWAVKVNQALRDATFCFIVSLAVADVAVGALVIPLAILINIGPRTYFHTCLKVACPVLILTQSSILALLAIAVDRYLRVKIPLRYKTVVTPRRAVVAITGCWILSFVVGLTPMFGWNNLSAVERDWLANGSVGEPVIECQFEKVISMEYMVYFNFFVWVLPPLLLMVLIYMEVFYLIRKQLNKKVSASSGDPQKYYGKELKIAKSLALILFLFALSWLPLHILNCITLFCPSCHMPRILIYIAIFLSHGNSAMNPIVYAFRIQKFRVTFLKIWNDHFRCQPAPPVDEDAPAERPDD
Lab note: anything with pKi at or over 8 counts as Yes; the rest go in No.

Would you please look over these solved cases?
• Cc1ccc2c(O)c(C(=O)OCc3ccccc3)cnc2n1 = No
• O=c1c(-c2ccco2)nnc2n(-c3ccccc3)c3ccccc3n12 = No
• Cc1ccc2c(NN)cc(-c3ccccc3)nc2n1 = No
• O=[N+]([O-])c1cccc(Nc2ncnc3c2nnn3Cc2ccccc2Cl)c1 = No

Continue with the next molecule.
Decide: pKi of CCCCNc1nc(-c2ccccc2)nc2c1nnn2Cc1ccccc1F >= 8?
Yes

----------
Please find below pKi data on Adenosine receptor A1 (Bos taurus, UniProt P28190) compiled from the literature.
pKi here is simply -log10 of the concentration when that concentration is written in mol/L.

• Cc1ccc(-n2cc3c(n2)c(=O)[nH]c2ccccc23)cc1 = 5.41
• Nc1nc2c([N+](=O)[O-])cccc2n2c(=O)n(-c3ccccc3)nc12 = 7.09
• COc1ccc2c(O)cc(-c3ccccc3)nc2n1 = 8.80
• COc1ccc(-n2nc3c(NC(=O)NCc4ccccc4)nc4ccccc4n3c2=O)cc1 = 7.68

Quick one: pKi of CC(=O)Nc1nc(-c2ccccc2)nc2nc(-c3ccccc3)cn12 ?
7.64

Quick one: pKi of COc1ccc(-c2nnc3n(C)c4ccccc4n3c2=O)cc1 ?
5.70

Quick one: pKi of O=c1[nH]c2ccc(Cl)cc2c2cn(-c3ccccc3)nc12 ?
6.55

Quick one: pKi of CCCn1c(=O)n(CCCF)c(=O)c2nc(C3CCCC3)[nH]c21 ?
9.67

Quick one: pKi of O=C(Nc1nc2ccccc2n2c(=O)n(-c3ccccc3)nc12)C(c1ccccc1)c1ccccc1 ?
7.99

Quick one: pKi of COC(=O)c1cnc2c(cnn2CC(Cl)c2ccccc2)c1NCc1ccccc1 (centres undefined) ?
6.90

Quick one: pKi of Nc1cccc2c1nc(N)c1nn(-c3ccc(O)cc3)c(=O)n12 ?
7.21

Quick one: pKi of O=c1[nH]c2ccc(Cl)cc2n2nc(-c3ccsc3)nc12 ?
6.00

Quick one: pKi of c1ccc(CNc2nc3ccccc3c3cn(-c4ccccc4)nc23)cc1 ?
6.88

Quick one: pKi of O=C(Cc1ccccc1)Nc1nc2ncccc2n2c(=O)n(-c3ccccc3)nc12 ?
8.15

Quick one: pKi of CCNC(=O)[C@H]1O[C@@H](n2cnc3c(N)ncnc32)[C@](C)(O)[C@@H]1O ?
6.85

Quick one: pKi of C[C@@]1(O)[C@H](O)[C@@H](CO)O[C@H]1n1cnc2c(NC3CCCC3)ncnc21 ?
8.02

----------
Please find below Ki data on Adenosine receptor A1 (Bos taurus) compiled from the literature.
Expressed in nM, but write only the number.

Known results for compounds:
• Nc1nc2c([N+](=O)[O-])cccc2n2c(=O)n(-c3ccc([N+](=O)[O-])cc3)nc12 = 155
• CN(C)c1ccc2c(O)cc(-c3ccccc3)nc2n1 = 0.631
• CC(=O)Oc1ccc(-n2nc3c(=O)[nH]c4ccccc4n3c2=O)cc1 = 26

Write down the reported Ki of Cc1cccc(-n2nc3c(NC4CCCCC4)nc4ccccc4n3c2=O)c1 , test system: Adenosine receptor A1 (Bos taurus).
3.98

Write down the reported Ki of O=c1[nH]nc2c(NCc3ccccc3)nc3ccccc3n12 , test system: Adenosine receptor A1 (Bos taurus).
50.1

Write down the reported Ki of CS(=O)(=O)Nc1nc2ccccc2n2c(=O)n(-c3ccccc3)nc12 , test system: Adenosine receptor A1 (Bos taurus).
164
